Target: WEE1 (Homo sapiens, UniProt P30291+Q96SW2)
Construct: C-terminal ePL-tagged (DiscoverX, Fremont, CA) full-length WEE1 expression construct; expressed in transfected cells; host or cells: LentiX-HEK293T (Invitrogen), lentiviral transduction; co-expressing GSPT1-GN (G576N, lacking the first 158 amino acids)
Assay: WEE1-ePL degradation assay (LentiX-WEE1-ePL-GSPT1-ND cells, InCELL Hunter luminescence, 4 h)
Format: cell-based
Settings: 293T-LentiX WEE1-ePL cells, read-out: 293T-LentiX WEE1-ePL Degradation 4 hr (EC50)
Hi! Could you tag entries with DC50 below 6 nM as True, and those at or above as False? Much appreciated.

Examples with answers:
Molecule	Label Value
O=C1CCC(N2Cc3cc(O[C@H]4CCN(Cc5cnc6cnccc6c5)C4)ccc3C2=O)C(=O)N1 (stereo partly drawn)	False
O=C1CCC(N2Cc3cc(O[C@H]4CCN(Cc5ccc6nc([C@H]7C[C@H](O)C7)ccc6c5)C4)ccc3C2=O)C(=O)N1 (stereo partly drawn)	True
CC1(C)C[C@@H](c2ccc3cc(CN4CC[C@H](Oc5ccc6c(c5)CN([C@H]5CCC(=O)NC5=O)C6=O)C4)ccc3n2)CCO1	True
O=C1CCC(N2Cc3cc(O[C@H]4CCN(Cc5ccc6ncc(F)cc6c5)C4)ccc3C2=O)C(=O)N1 (stereo partly drawn)	False
CN1CC[C@H](c2ncc3cc(CN4CC[C@H](Oc5ccc6c(c5)CN(C5CCC(=O)NC5=O)C6=O)C4)ccc3n2)C1 (stereo partly drawn)	False
Cn1ncc2cc(CN3CC[C@H](Oc4ccc5c(c4)CN(C4CCC(=O)NC4=O)C5=O)C3)ccc21 (stereo partly drawn)	False
COCc1ccc2nc(CN3CC[C@H](Oc4ccc5c(c4)CN(C4CCC(=O)NC4=O)C5=O)C3)ccc2c1 (stereo partly drawn)	False
O=C1CCC(N2Cc3cc(O[C@H]4CCN(Cc5cc6cc([C@@H]7CCOC7)ccc6cn5)C4)ccc3C2=O)C(=O)N1 (stereo partly drawn)	True

Is DC50 of CO[C@H]1CC[C@H](Nc2ccc3cc(CN4CC[C@H](Oc5ccc6c(c5)CN(C5CCC(=O)NC5=O)C6=O)C4)ccc3n2)CC1 (stereo partly drawn) strictly below 6 nM? False

Is DC50 of CNC(=O)c1ccc2cc(CN3CC[C@H](Oc4ccc5c(c4)CN(C4CCC(=O)NC4=O)C5=O)C3)ncc2c1 (stereo partly drawn) strictly below 6 nM? False

Is DC50 of O=C1CC[C@H](N2Cc3cc(O[C@@H]4CN(Cc5ccc6nc([C@H]7CCOC7)ccc6c5)CC4(F)F)ccc3C2=O)C(=O)N1 strictly below 6 nM? False

Is DC50 of O=C1CCC(N2Cc3cc(O[C@H]4CCN(Cc5ccc6nc([C@@H]7CCCOC7)ccc6c5)C4)ccc3C2=O)C(=O)N1 (stereo partly drawn) strictly below 6 nM? True

Is DC50 of O=C1CCC(N2Cc3ccc(O[C@H]4CCN(Cc5cnc6ccccc6c5)C4)cc3C2=O)C(=O)N1 (stereo partly drawn) strictly below 6 nM? False

Is DC50 of CN(c1ccc2cc(CN3CC[C@H](Oc4ccc5c(c4)CN(C4CCC(=O)NC4=O)C5=O)C3)ccc2n1)C1CCOCC1 (stereo partly drawn) strictly below 6 nM? True

Is DC50 of O=C1CCC(N2Cc3cc(O[C@H]4CCN(Cc5cc6c(cn5)OCCC6)C4)ccc3C2=O)C(=O)N1 (stereo partly drawn) strictly below 6 nM? False

Is DC50 of O=C1CCC(N2Cc3cc(O[C@H]4CCN(Cc5ccc6ncc(C(F)F)cc6c5)C4)ccc3C2=O)C(=O)N1 (stereo partly drawn) strictly below 6 nM? True

Is DC50 of CC1(C)COCC[C@@H]1c1ccc2cc(CN3CC[C@H](Oc4ccc5c(c4)CN(C4CCC(=O)NC4=O)C5=O)C3)ccc2n1 (stereo partly drawn) strictly below 6 nM? True

----------
Target: WEE1 (Homo sapiens, UniProt P30291+Q96SW2)
Construct: C-terminal ePL-tagged (DiscoverX, Fremont, CA) full-length WEE1 expression construct; expressed in transfected cells; host or cells: LentiX-HEK293T (Invitrogen), lentiviral transduction; co-expressing GSPT1-GN (G576N, lacking the first 158 amino acids)
Test: WEE1-ePL degradation assay (LentiX-WEE1-ePL-GSPT1-ND cells, InCELL Hunter luminescence, 4 h)
Format: cell-based
Details: 293T-LentiX WEE1-ePL cells, lower limit of the fit (0 = luciferase inhibitor, Ymax = DMSO control)
Readout Kind: 293T-LentiX WEE1-ePL Degradation 4 hr (Ymin)

Batch request: 293T-LentiX WEE1-ePL Degradation 4 hr (Ymin) for each of the following compounds.
1. CO[C@H]1CC[C@](C)(Nc2ccc3cc(CN4CC[C@H](Oc5ccc6c(c5)CN(C5CCC(=O)NC5=O)C6=O)C4)ccc3n2)CC1 (some centres unmarked)
2. CC1(C)COCC[C@@H]1c1ccc2cc(CN3CC[C@H](Oc4ccc5c(c4)CN(C4CCC(=O)NC4=O)C5=O)C3)ccc2n1 (some centres unmarked)
3. CN1CCCc2c(CN3CC[C@H](Oc4ccc5c(c4)CN(C4CCC(=O)NC4=O)C5=O)C3)cncc21 (some centres unmarked)
4. COc1ncc2cc(CN3CC[C@H](Oc4ccc5c(c4)CN(C4CCC(=O)NC4=O)C5=O)C3)ccc2n1 (some centres unmarked)
5. O=C1CCC(N2Cc3cc(O[C@H]4CCN(Cc5cnc6c(c5)COCC6)C4)ccc3C2=O)C(=O)N1 (some centres unmarked)
6. COC1(c2ccc3cc(CN4CC[C@H](Oc5ccc6c(c5)CN(C5CCC(=O)NC5=O)C6=O)C4)ccc3n2)CCC1 (some centres unmarked)

1. 30
2. 34
3. 40
4. 37
5. 35
6. 31

Batch request: 293T-LentiX WEE1-ePL Degradation 4 hr (Ymin) for each of the following compounds.
1. CC1(C)CC(c2ccc3cc(CN4CC[C@H](Oc5ccc6c(c5)CN(C5CCC(=O)NC5=O)C6=O)C4)ccc3n2)CCO1 (some centres unmarked)
2. O=C1CC[C@@H](N2Cc3cc(O[C@H]4CCN(Cc5ccc6ncccc6c5)C4)ccc3C2=O)C(=O)N1
3. O=C1CC[C@H](N2Cc3cc(O[C@H]4CCN(Cc5cc(F)c6nc(C7CCOCC7)ccc6c5)C4)ccc3C2=O)C(=O)N1
4. O=C1CCC(N2Cc3cc(O[C@H]4CCN(Cc5ccc(-c6ccccc6)cn5)C4)ccc3C2=O)C(=O)N1 (some centres unmarked)
5. CC(C)(O)c1ccc2cc(CN3CC[C@H](Oc4ccc5c(c4)CN(C4CCC(=O)NC4=O)C5=O)C3)ncc2c1 (some centres unmarked)
6. CO[C@H]1CC[C@@](C)(Nc2ccc3cc(CN4CC[C@H](Oc5ccc6c(c5)CN(C5CCC(=O)NC5=O)C6=O)C4)ccc3n2)CC1 (some centres unmarked)
7. O=C1CCC(N2Cc3cc(O[C@H]4CCN(Cc5cc6ccc([C@@H]7CCOC7)cc6cn5)C4)ccc3C2=O)C(=O)N1 (some centres unmarked)
8. O=C1CCC(N2Cc3cc(O[C@H]4CCN(Cc5cc(F)c6nc(C7CCOCC7)ccc6c5)C4)ccc3C2=O)C(=O)N1 (some centres unmarked)

1. 29
2. 26.94
3. 29.02
4. 46
5. 31
6. 26
7. 30
8. 28

----------
I'd be grateful if you could share measured DC50 for these entries.
Target: WEE1 (Homo sapiens, UniProt P30291+Q96SW2)
Construct: C-terminal ePL-tagged (DiscoverX, Fremont, CA) full-length WEE1 expression construct; expressed in transfected cells; host or cells: LentiX-HEK293T (Invitrogen), lentiviral transduction; co-expressing GSPT1-GN (G576N, lacking the first 158 amino acids)
Assay: WEE1-ePL degradation assay (LentiX-WEE1-ePL-GSPT1-ND cells, InCELL Hunter luminescence, 4 h)
Type: cell-based
Details: 293T-LentiX WEE1-ePL cells, read-out: 293T-LentiX WEE1-ePL Degradation 4 hr (EC50)
Numbers only, in nM.

Molecule	Result Value
CN1CCCc2cc(CN3CC[C@H](Oc4ccc5c(c4)CN(C4CCC(=O)NC4=O)C5=O)C3)cnc21 (stereo partly drawn)	19.1
O=C1CCC(N2Cc3cc(O[C@H]4CCN(Cc5ccc6nc([C@H]7CCOC7)ccc6c5)C4)ccc3C2=O)C(=O)N1 (stereo partly drawn)	2.71

Attention now turns to another entry.
Field DC50 (system: WEE1 (Homo sapiens, UniProt P30291+Q96SW2)) for entry O=C1CCC(N2Cc3cc(O[C@H]4CCN(Cc5ccc6nc(-n7ccccc7=O)ccc6c5)C4)ccc3C2=O)C(=O)N1 (stereo partly drawn) = 2.27

----------
Molecular target: WEE1 (Homo sapiens, UniProt P30291+Q96SW2)
Construct: C-terminal ePL-tagged (DiscoverX, Fremont, CA) full-length WEE1 expression construct; expressed in transfected cells; host or cells: LentiX-HEK293T (Invitrogen), lentiviral transduction; co-expressing GSPT1-GN (G576N, lacking the first 158 amino acids)
Experiment: WEE1-ePL degradation assay (LentiX-WEE1-ePL-GSPT1-ND cells, InCELL Hunter luminescence, 4 h)
Type: cell-based
Conditions: 293T-LentiX WEE1-ePL cells, read-out: 293T-LentiX WEE1-ePL Degradation 4 hr (EC50)
Procedure: To generate LentiX-WEE1-ePL-GSPT1-ND cells for the WEE1 degradation assay, LentiX-HEK293T (Invitrogen) were transduced by lentivirus with a C-terminal ePL-tagged (DiscoverX, Fremont, CA) full-length WEE1 expression construct. […] Cells were selected and maintained in complete DMEM media (DMEM, 10% Heat Inactivated FBS, 400 μg/mL Geneticin, and 1 μg/mL puromycin at 37 C and 5% CO2). Cells were passaged every 3-4 days by reseeding 1×10^6 cells in a T150 flask. […]
I'd be grateful if you could share measured log10 DC50 for these entries.
Parameter value (number): base-10 log of DC50 in nM.

Recorded results for 5 compounds are shown here.
Compound	log10 DC50
CNc1ccc2cc(CN3CC[C@H](Oc4ccc5c(c4)CN(C4CCC(=O)NC4=O)C5=O)C3)ncc2c1 (stereo partly drawn)	0.95
CO[C@H]1CC[C@@](C)(Nc2ccc3cc(CN4CC[C@H](Oc5ccc6c(c5)CN(C5CCC(=O)NC5=O)C6=O)C4)ccc3n2)CC1 (stereo partly drawn)	0.53
O=C1CCC(N2Cc3cc(O[C@H]4CCN(Cc5ccc6nc(N7CCC7)ccc6c5)C4)ccc3C2=O)C(=O)N1 (stereo partly drawn)	0.48
N#Cc1ccc2cc(CN3C[C@@H](F)[C@H](Oc4ccc5c(c4)CN(C4CCC(=O)NC4=O)C5=O)C3)ccc2n1 (stereo partly drawn)	1.35
O=C1CCC(N2Cc3cc(O[C@H]4CCN(Cc5ccc6nc(N7CC8(COC8)C7)ncc6c5)C4)ccc3C2=O)C(=O)N1 (stereo partly drawn)	1.55

Attention now turns to another entry.
// log10 DC50 lookup, compound = C[C@@H]1c2cc(O[C@H]3CCN(Cc4ccc5nc(C6CCOCC6)ccc5c4)C3)ccc2C(=O)N1[C@H]1CCC(=O)NC1=O , result: 0.43
